Each record here notes measured pre-steady-state target cleavage rate.
System: MILI (PIWIL2) piRISC loaded with Kctd7 piRNA (26 nt);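 also: 1 nM active piRISC with 0.1 nM target library at 33 °C single turnover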
Experiment: pre-steady-state target cleavage rate (min^-1); higher = faster piRNA-guided slicing of the target
Conditions: guide: Kctd7 piRNA 5'p-UGUUAAUCUCUCAGAGAAGGUGACAG; auxiliary factor: 500 nM mouse GTSF1
Over roughly 3,700 sequences, “pre-steady-state target cleavage rate” has its median near 0.02; the highest 2% begin near 0.23. The list comes from a sample in which the highest values are over-represented; it also holds close analogues and randomly drawn sequences.
Form rule: numeric answer, no unit written next to it.

Check out these entries, answers already filled in.
| Polymer sequence | pre-steady-state target cleavage rate |
| --- | --- |
| UAGUCUGUCACCUUCUCUGAGAGAUUAACG [g2:g26:cont:t1G] | 0.196 |
| UAGUGUGUCACCUUCUCUGAGAGAUUAACC [g2:g25:cont:t1C] | 0.202 |

Consider the record given below.
(Q) Give the measured pre-steady-state target cleavage rate of UAGUGUGUCACCUUCUCUGAGAGAUUACCA .
(A) 0.197

* * *

System: MILI (PIWIL2) piRISC loaded with Kctd7 piRNA (26 nt);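 also: 1 nM active piRISC with 0.1 nM target library at 33 °C single turnover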
Assay: pre-steady-state target cleavage rate (min^-1); higher = faster piRNA-guided slicing of the target
Details: guide: Kctd7 piRNA 5'p-UGUUAAUCUCUCAGAGAAGGUGACAG; auxiliary factor: 500 nM mouse GTSF1
Whole data set: some 3,700 sequences, median “pre-steady-state target cleavage rate” near 0.02, cut for the highest 2% near 0.23. For the sample, the highest values were picked, then their nearest neighbours and some sequences at random.
Reported metric: pre-steady-state target cleavage rate
Form rule: numeric answer, no unit written next to it.

Check out these entries, answers already filled in.
| Polymer sequence | Reported value |
| --- | --- |
| UAGUGUGUCACCUACUCUGAGAGAUUAAGA | 0.1 |
| UAGUCUGUCCACCUUCUCUGAGAGAUUAACA | 0.15 |
| UAGUGACUGUCCUUCUCUGAGAGAUUAACA | 0.2 |
| UAGUGACAGUCCUUGUGUGAGAGAUUAACA | 0.0291 |
| UAGUGUGUCACCUUCUCUGAGAGAUUAAGA | 0.145 |
| UAGUGACUCACCUUCUGUGACAGAUUAACA | 0.0678 |

(Q) Give the measured pre-steady-state target cleavage rate of UAGUGAGUCACCUUCUCUGAGAGAUUAAAA .
(A) 0.135

(Q) Then what about the sequence UAGUGUGUCACCUUCUCUGAGAGAUUAAACA ?
(A) 0.214

(Q) Then what about the sequence UAGUGAGGUCACCUUCUCUGAGAGAUUAACA ?
(A) 0.242

(Q) Then what about the sequence UAGUGACUCACGUUCUCUGAGAGAUUUACA ?
(A) 0.0554

(Q) Then what about the sequence UAGUGAGUCACCUUCUCUGAGAGAUUAAA ?
(A) 0.202

(Q) Then what about the sequence UAGUGAGUCACCUUCCUCUGAGAGAUUAACA ?
(A) 0.148

(Q) Then what about the sequence UAGUGACUCAGCUUGUCUGAGAGAUUAACA ?
(A) 0.112

(Q) Then what about the sequence UAGUGACUCACCUUCUGUGAGAGUUUAACA ?
(A) 0.0308

* * *

Test system: MILI (PIWIL2) piRISC loaded with Kctd7 piRNA (26 nt);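 also: 1 nM active piRISC with 0.1 nM target library at 33 °C single turnover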
Experiment: pre-steady-state target cleavage rate (min^-1); higher = faster piRNA-guided slicing of the target
Details: guide: Kctd7 piRNA 5'p-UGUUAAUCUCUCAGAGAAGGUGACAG; auxiliary factor: 500 nM mouse GTSF1
The full ranking holds about 3,700 sequences; the median of “pre-steady-state target cleavage rate” is about 0.02, and the highest 2% start at about 0.23. Many of the other results were omitted from the sample, so the highest values are more common in it than they were.
Reported metric: pre-steady-state target cleavage rate
Form rule: numeric answer, no unit written next to it.

| Polymer sequence | Target system | Reported value |
| --- | --- | --- |
| UAGUGACAGUGCUUCUCUGAGAGAUUAUCA | MILI (PIWIL2) piRISC loaded with Kctd7 piRNA (26 nt) | 0.00765 |
| UAGUGACAGUGCUUCUCUGAGAGAAUUAACA | MILI (PIWIL2) piRISC loaded with Kctd7 piRNA (26 nt) | 0.0127 |
| UAGUGACACACCUUCUGAGAGAGAUUAUGA | MILI (PIWIL2) piRISC loaded with Kctd7 piRNA (26 nt) | 0.0134 |
| UAGUGUGUCACCUUCUCUGAGAGUAAAACA | MILI (PIWIL2) piRISC loaded with Kctd7 piRNA (26 nt) | 0.194 |
| UAGUGUGUCACCUUCUCUGAGAAAUUAACA | MILI (PIWIL2) piRISC loaded with Kctd7 piRNA (26 nt) | 0.112 |

(Q) Give the measured pre-steady-state target cleavage rate of UAGUCUGUCACCUUCUCUGAGAGAGUAACA .
(A) 0.245

(Q) Then what about the sequence UAGUCUGUCACCUUCUCUGAGAGAAUUAACA ?
(A) 0.32

(Q) Then what about the sequence UAGUGUGUCACCUUCUCUGAGAGUAUAACA ?
(A) 0.181

* * *

Test system: MILI (PIWIL2) piRISC loaded with Kctd7 piRNA (26 nt);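 also: 1 nM active piRISC with 0.1 nM target library at 33 °C single turnover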
Assay: pre-steady-state target cleavage rate (min^-1); higher = faster piRNA-guided slicing of the target
Settings: guide: Kctd7 piRNA 5'p-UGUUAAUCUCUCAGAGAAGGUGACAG; auxiliary factor: 500 nM mouse GTSF1
In all, about 3,700 sequences were measured (“pre-steady-state target cleavage rate”: median about 0.02, highest 2% from about 0.23 on). What follows is part of a selection rich in the highest values, with near analogues and random picks from the rest.
Reported metric: pre-steady-state target cleavage rate
Form rule: numeric answer, no unit written next to it.

| Polymer sequence | Reported value |
| --- | --- |
| UAGUGUCUCACCUUCUCUGAGAGAUUUACA | 0.196 |

(Q) Give the measured pre-steady-state target cleavage rate of UAGUGAGUCACCUUCUCUGAGAGAUUAUCA .
(A) 0.197

(Q) Then what about the sequence UAGUGUGCACCUUCUCUGAGAGAUUAACA ?
(A) 0.196

(Q) Then what about the sequence UAGUGACAGUCCUUCUCUGAGAGAUUAACCA ?
(A) 0.0785

(Q) Then what about the sequence UAGUCUGUCACCUUCUGCUGAGAGAUUAACA ?
(A) 0.0816

(Q) Then what about the sequence UAGUGUGUGCACCUUCUCUGAGAGAUUAACA ?
(A) 0.195

* * *

Each record here notes measured pre-steady-state target cleavage rate.
System: MILI (PIWIL2) piRISC loaded with Kctd7 piRNA (26 nt);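 also: 1 nM active piRISC with 0.1 nM target library at 33 °C single turnover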
Experiment: pre-steady-state target cleavage rate (min^-1); higher = faster piRNA-guided slicing of the target
Settings: guide: Kctd7 piRNA 5'p-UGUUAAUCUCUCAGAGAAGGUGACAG; auxiliary factor: 500 nM mouse GTSF1
In all, about 3,700 sequences were measured (“pre-steady-state target cleavage rate”: median about 0.02, highest 2% from about 0.23 on). The full list was thinned out, with the highest values kept by preference.
Form rule: numeric answer, no unit written next to it.

| Polymer sequence | pre-steady-state target cleavage rate |
| --- | --- |
| UAGUGACUCACCUUCUCUGAGAGAUUAAA | 0.13 |
| UAGUGACACAACCUUCUCUGAGAGAUUAACA | 0.155 |
| UAGUGAGUCACCUUCUCUGAGAGAUAAACA | 0.249 |
| UAGUGAGUCACCUUCUCUGAGAGAUUAACA [g2:g24:cont:t1A] | 0.25 |
| UAGUGACUCAUCCUUCUCUGAGAGAUUAACA | 0.0582 |

(Q) Give the measured pre-steady-state target cleavage rate of UAGUGUGUCACCUUCGUCUGAGAGAUUAACA .
(A) 0.088

(Q) Then what about the sequence UAGUGAGACACCUUCUCUGAGAGAUUAACA ?
(A) 0.185

(Q) Then what about the sequence UAGUGUGUCACCUUCUCUGAGAGAUUAAUCA ?
(A) 0.18

* * *

System: MILI (PIWIL2) piRISC loaded with Kctd7 piRNA (26 nt);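 also: 1 nM active piRISC with 0.1 nM target library at 33 °C single turnover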
Test: pre-steady-state target cleavage rate (min^-1); MIWI and MILI are mouse PIWI proteins and EfPiwi is from a freshwater sponge; tags in brackets are library labels; higher = faster piRNA-guided slicing of the target;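 also: 1 nM active piRISC with 0.1 nM target library at 33 °C single turnover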
Details: guide: Kctd7 piRNA 5'p-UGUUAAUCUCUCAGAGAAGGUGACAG; auxiliary factor: 500 nM mouse GTSF1
In all, about 3,700 sequences were measured (“pre-steady-state target cleavage rate”: median about 0.02, highest 2% from about 0.23 on). The sample as a whole holds a higher share of the highest values than the screen did.
Note to self: values exactly at 0.05 are rule met. So pre-steady-state target cleavage rate at or above 0.05 is rule met, below is rule not met.

Study these solved cases before continuing.
| Polymer sequence | Assigned label |
| --- | --- |
| UAGUGUGUCAGGUUCUCUGAGAGAUUAUGA | rule not met |
| UAGUGUGUCACCUUCUGUCAGAGAUUAACA | rule not met |
| UAGUGAGUCACCUUCUCUGAGGAGAUUAACA | rule not met |
| UAGUGACUCACCUUCUCUGAGAGAUUAAAA | rule met |
| UAGUGUGUCACCUUCUCUGAGAGAUUAAUA | rule met |
| UAGUGACCCACCUUCUCUGAGAGAUUAACA | rule met |

(Q) Would you say UAGUGAGUCACCUUCCUGAGAGAUUAACA shows pre-steady-state target cleavage rate at minimum 0.05?
(A) rule met

(Q) Then what about the sequence UAGUGACACAGCUUCUCUGAGAGAUAAACA ?
(A) rule not met

(Q) Then what about the sequence UAGUGAGUGACCUUCUCUGAGAGAUUAACA ?
(A) rule met

(Q) Then what about the sequence UAGUGAGUCACCUUCUCUGUGAGAUAAACA ?
(A) rule not met

(Q) Then what about the sequence UAGUGAGUCACCUUCUCUGAGAGAUAAAGA ?
(A) rule not met

(Q) Then what about the sequence UAGUGUGUCACCUACUCUGAGAGAUUUACA ?
(A) rule met

(Q) Then what about the sequence UAGUCUGUCACCAACUCUGAGAGAUUAAGA ?
(A) rule not met

(Q) Then what about the sequence UAGUCUGUCACCUUCAUCUGAGAGAUUAACA ?
(A) rule met
